Taken from patent US8501757B2.

molecular target: rat mGluR5 (Rattus norvegicus, UniProt P31424); test: cell-based
Sequence (P31424 21-1203): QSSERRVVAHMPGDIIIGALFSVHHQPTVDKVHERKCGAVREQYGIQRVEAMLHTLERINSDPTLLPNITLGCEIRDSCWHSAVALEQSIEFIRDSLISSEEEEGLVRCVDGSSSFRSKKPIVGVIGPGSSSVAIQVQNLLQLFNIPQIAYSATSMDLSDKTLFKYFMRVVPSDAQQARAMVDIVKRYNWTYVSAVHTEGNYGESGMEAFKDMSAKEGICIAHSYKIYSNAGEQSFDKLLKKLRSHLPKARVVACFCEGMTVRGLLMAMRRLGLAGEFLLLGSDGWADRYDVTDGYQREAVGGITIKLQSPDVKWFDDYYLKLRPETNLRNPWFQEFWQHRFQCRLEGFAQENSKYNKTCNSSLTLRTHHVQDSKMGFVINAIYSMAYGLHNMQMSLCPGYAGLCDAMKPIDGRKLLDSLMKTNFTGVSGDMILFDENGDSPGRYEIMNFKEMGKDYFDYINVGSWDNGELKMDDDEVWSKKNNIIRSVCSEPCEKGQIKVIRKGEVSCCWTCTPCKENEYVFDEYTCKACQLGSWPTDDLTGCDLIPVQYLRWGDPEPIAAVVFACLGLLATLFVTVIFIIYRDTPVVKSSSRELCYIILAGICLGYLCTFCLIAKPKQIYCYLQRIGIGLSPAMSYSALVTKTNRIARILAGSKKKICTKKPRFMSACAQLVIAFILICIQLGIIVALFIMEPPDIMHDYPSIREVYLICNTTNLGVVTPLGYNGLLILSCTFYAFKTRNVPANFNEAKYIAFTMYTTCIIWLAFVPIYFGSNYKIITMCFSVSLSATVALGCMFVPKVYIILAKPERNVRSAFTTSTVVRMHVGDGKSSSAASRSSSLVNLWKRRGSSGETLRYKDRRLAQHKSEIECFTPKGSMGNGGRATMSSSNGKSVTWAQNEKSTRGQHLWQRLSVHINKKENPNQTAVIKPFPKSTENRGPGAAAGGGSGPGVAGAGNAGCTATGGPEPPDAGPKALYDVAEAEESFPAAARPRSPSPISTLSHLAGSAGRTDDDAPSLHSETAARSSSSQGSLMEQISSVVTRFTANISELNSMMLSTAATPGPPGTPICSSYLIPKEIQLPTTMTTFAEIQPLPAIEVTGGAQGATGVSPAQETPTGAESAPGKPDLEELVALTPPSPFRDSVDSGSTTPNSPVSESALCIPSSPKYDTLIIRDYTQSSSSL
ASSAY_METRIC: IC50 (nM)

Some solved cases for reference:
N#Cc1cccc(C(=O)Nc2cc(F)cc(Oc3cncnc3)c2)c1 [drawing 550] : 61
CN(c1cncnc1)c1cc(NC(=O)c2cccc(F)n2)ccc1F : 8.6
CN(c1cncnc1)c1cc(NC(=O)c2cccc(F)c2)ccc1F : 9.8

[I] O=C(Nc1cc(F)cc(Oc2cncnc2)c1)c1cccc(F)c1
[II] N#Cc1cc(C(=O)Nc2cc(F)cc(Oc3cncnc3)c2)ccc1F
Lower value of IC50 belongs to which: I or II ? In your reply, give the label of the chosen option.
I
(I: 288 nM, II: 1640 nM)

----------
biological target: UniProt:P31424; details: read-out: mGluR5, IC50 rat; HEK cells expressing rat mGluR5
ASSAY_METRIC: IC50 (nM)
State the answer as a number, implicitly in nM.

IC50 lookup needed for N#Cc1cccc(C(=O)Nc2cc(F)cc(Oc3cncnc3)c2)c1 [drawing 665] , thanks.
61

----------
biological target: rat mGluR5 (Rattus norvegicus); assay: cell-based
ASSAY_METRIC: IC50 (nM)

O=C(Nc1cc(F)cc(Oc2cncnc2)c1)c1cccc(F)n1 : 2560
CN(c1cncnc1)c1cc(NC(=O)c2cccc(C#N)c2)ccc1Cl : 59
CCN(c1cccnc1)c1cccc(NC(=O)c2cccc(Br)c2)c1 : 208

[1] O=C(Nc1cccc(Oc2cccnc2)c1)c1ccc(F)c(Cl)c1
[2] N#Cc1cc(NC(=O)c2cc(Br)ccn2)cc(Oc2cncnc2)c1
[3] CN(c1cccnc1)c1cccc(NC(=O)c2cccc(Cl)c2)c1
Rank items: key IC50, increasing. Lab note: final answer is the ordered label list.
2, 3, 1
(2: 17 nM, 3: 31 nM, 1: 6250 nM)

[I] CCN(c1cccnc1)c1cc(F)cc(NC(=O)c2cccc(Cl)c2)c1
[II] O=C(Nc1cccc(Oc2cncnc2)c1)c1cccc(Br)c1
[III] CN(c1cncnc1)c1cc(NC(=O)c2cscn2)cc(F)c1F
Sort by IC50, descending. Lab note: final answer is the ordered label list.
I, III, II
(I: 388 nM, III: 80 nM, II: 53 nM)

----------
molecular target: rat mGluR5 (Rattus norvegicus); test: cell-based
pIC50: −log10 of the molar value.
ASSAY_METRIC: pIC50

Some solved cases for reference:
N#Cc1cccc(C(=O)Nc2cc(Cl)cc(Oc3cncnc3)c2)c1 : 7.20
O=C(Nc1cc(F)c(F)c(Oc2cncnc2)c1)c1ccc(F)cn1 : 5.27
CN(c1cncnc1)c1ccc(F)c(NC(=O)c2cccc(Cl)c2)c1 : 7.10
CN(c1cncnc1)c1cccc(NC(=O)c2cccc(C#N)c2)c1 : 7.08
CCCN(c1cccnc1)c1cccc(NC(=O)c2cccc(Cl)c2)c1 : 5.26
O=C(Nc1cccc(Oc2cccnc2)c1)c1nccs1 : 5.80

[I] N#Cc1ccc(F)c(C(=O)Nc2cc(F)cc(Oc3cncnc3)c2)c1
[II] CN(c1cncnc1)c1cc(NC(=O)c2cccc(Br)c2)ccc1F
Lower value of pIC50 belongs to which: I or II ? In your reply, give the label of the chosen option.
I

[I] CN(c1cccnc1)c1cccc(NC(=O)c2cccc(Br)c2)c1
[II] CCN(c1cncnc1)c1cccc(NC(=O)c2cccc(C#N)c2)c1
[III] N#Cc1cc(NC(=O)c2cccc(C#N)c2)cc(Oc2cncnc2)c1
Rank items: key pIC50, increasing. Lab note: final answer is the ordered label list.
III, I, II
(III: 6.35, I: 7.08, II: 7.37)
